The reported numbers originate from ChEMBL document CHEMBL1201862.

- Tested on: EKVX
- assayRemarks: NCI tumour cell line growth inhibition, 48 h
The source made the active and inactive calls. Cut-off read from the data, not from the text of the source: active = GI50 up to about 1.1 µM and inactive = higher.
The compounds listed here are annotated with their GI50.
valueType: GI50

>>> valuereported("O=C(/C=C/c1ccc(Cl)c(Cl)c1)c1ccc(F)cc1")
"27.4 µM (inactive)"
>>> valuereported("CC(C)C(NC(=O)C(Cc1ccccc1)NC(=O)[C@H]1CCC[C@H]1NC(=O)C(Cc1ccc(OC(C)(C)C)cc1)NC(=O)OC(C)(C)C)C(N)=O (stereo partly drawn)")
"> 100 µM (inactive)"
>>> valuereported("Cc1ccc2nc(C(=O)O)c(=O)[nH]c2c1")
"> 100 µM (inactive)"

----------
GI50, HCT-15, per-entry values.
valueType: GI50

>>> valuereported("CCCc1onc(CCC(=O)N(Cc2ccccc2)Cc2ccccc2)c1CC")
"> 100 µM"
>>> valuereported("Cc1c(Cl)cccc1NC(=O)C(=O)C1C(=O)CC(C)(C)CC1=O")
"> 100 µM"
>>> valuereported("CCOC(=O)C1S/C(=N\\c2ccc(Cl)cc2)N=C1C (centres undefined)")
"16.1 µM"
>>> valuereported("C=CCNC(=O)NC(=O)CSC1=NC(=O)C2(NN1)c1ccccc1-c1ccccc12")
"> 10 µM"

----------
- System: IGROV-1
- assayRemarks: NCI tumour cell line growth inhibition, 48 h
Calls of active or inactive are those of the source. No stated cut-off is given here; in the data, active = GI50 up to about 1.1 µM and inactive = higher.
Outcome codes: True (active), False (inactive)

>>> labelvalue("O=c1n(CC2CO2)c(=O)n(CC2CO2)c(=O)n1CC1CO1 (stereo not given)")
"False"
>>> labelvalue("O=C1c2ccccc2-c2nc(-c3ccncc3)cc3c2c1nc1ccccc13")
"True"
>>> labelvalue("O=c1c(-c2ccccc2)c(SCCCN2CCN(c3cccc(Cl)c3)CC2)n(-c2ccccc2)c(=S)n1-c1ccccc1")
"False"
>>> labelvalue("[N-]=[N+]=CC(=O)OC(CCl)CCl")
"False"
>>> labelvalue("COC(=O)c1cc(CNCCc2c[nH]c3ccccc23)on1")
"False"
>>> labelvalue("C[N+]1(CCCl)CC[N+](C)(CCCl)CC1 (stereo not given)")
"False"
>>> labelvalue("C[C@@]12CC[C@H]3[C@@H]4CCC(=O)N[C@@]4(C)CC[C@@H]3[C@@]1(C)CC[C@H](OC(=O)Cc1ccc(N(CCCl)CCCl)cc1)C2")
"False"
>>> labelvalue("C1CN2CCN3CCN4CCN1[PH]243")
"False"
>>> labelvalue("C/C(CC(=O)Nc1ccc([N+](=O)[O-])cc1)=N\\Nc1ccc([N+](=O)[O-])cc1[N+](=O)[O-]")
"False"
>>> labelvalue("CC(C)(C)c1cc(Oc2ccc(C#N)c(C#N)c2)cc(C(C)(C)C)c1")
"False"
>>> labelvalue("Cc1ccc(NC(=O)CC/C(CC(=O)C(C)(C)C)=N/NC(=O)C[N+](C)(C)C)cc1C")
"False"
>>> labelvalue("CCOc1ccncc1[N+](=O)[O-]")
"False"
>>> labelvalue("COc1ccc(-c2cc(Cc3cccs3)c(=O)[nH]n2)cc1")
"False"
>>> labelvalue("CCOC(=O)c1sc2nc(SC)nc(Nc3ccc4c(c3)OCCCO4)c2c1N")
"False"
>>> labelvalue("CCOc1cc2c(cc1O)C(N)C[C@@H]1[C@@H]2CC[C@]2(C)[C@@H](O)CC[C@@H]12 (stereo not given in full)")
"False"

----------
- Test system: RXF 393
- assayRemarks: NCI tumour cell line growth inhibition, 48 h
Active and inactive are the calls of the source. No stated cut-off is given here; in the data, active = GI50 up to about 1.1 µM and inactive = higher.
The compounds listed here are annotated with their GI50.
valueType: GI50

>>> valuereported("CS(=O)(=O)OCC(CCl)(CCl)CCl")
"> 100 µM (inactive)"
>>> valuereported("CCCNC1=Nc2ccccc2N(Cc2ccccc2)CC1")
"11.6 µM (inactive)"
>>> valuereported("Brc1ccc(-c2cn3ccncc3n2)cc1")
"> 100 µM (inactive)"

----------
- Test system: NCI-H23
- assayRemarks: NCI tumour cell line growth inhibition, 48 h
Calls of active or inactive are those of the source. No stated cut-off is given here; in the data, active = GI50 up to about 1.1 µM and inactive = higher.
The compounds listed here are annotated with their GI50.
valueType: GI50

>>> valuereported("C/C(CC(=O)Nc1ccc([N+](=O)[O-])cc1)=N\\Nc1ccc([N+](=O)[O-])cc1[N+](=O)[O-]")
"> 100 µM (inactive)"
>>> valuereported("COc1cc2c(NCCN(C)C)nc3c4cc5c(cc4ccc3c2cc1OC)OCO5")
"3.08 µM (inactive)"
>>> valuereported("COc1ccc(-c2cc(Cc3cccs3)c(=O)[nH]n2)cc1")
"56.8 µM (inactive)"
>>> valuereported("C/C(=N\\NS(=O)(=O)c1ccc(C)cc1)C(CN1CCOCC1)C(c1ccccc1)c1c(O)c2ccccc2oc1=O (centres undefined)")
"> 100 µM (inactive)"
>>> valuereported("COC(=O)c1ccc(OCc2ccc3oc(=O)c(-c4ccccc4)nc3c2)cc1")
"71.3 µM (inactive)"
>>> valuereported("CCc1c[n+]2c(cc1C1=CN3c4ccccc4[C@]45CCN6C/C(=C/CO)[C@H](C[C@H]64)[C@@H]([C@@H]1O)[C@H]35)-c1[nH]c3ccccc3c1CC2")
"> 50 µM (inactive)"
>>> valuereported("CN(C(=O)OC(C)(C)C)[C@H]1CCCC[C@H]1N1CCCC1")
"> 100 µM (inactive)"
>>> valuereported("COc1cccc(-c2cc(C(=O)Nc3ccc(Cl)cc3)nc(N)n2)c1")
"75 µM (inactive)"
>>> valuereported("Cc1ccc(S(=O)(=O)c2c(O)c3ccccc3n(C)c2=O)cc1")
"> 100 µM (inactive)"
>>> valuereported("C=C(CO)CC(/C=C(\\C)CC/C=C(\\C)CCl)OC(C)=O (centres undefined)")
"> 100 µM (inactive)"
>>> valuereported("CC(=O)NC1C(OCc2ccccc2)OC(CO)C(O)C1OCC(=O)N1CCCC1C(=O)N[C@@H](CCC(=O)NCCNCCNc1c2ccccc2nc2cccc([N+](=O)[O-])c12)C(N)=O (some centres undefined)")
"2.51 µM (inactive)"
>>> valuereported("Cc1ccc(NC(=O)CC/C(CC(=O)C(C)(C)C)=N/NC(=O)C[N+](C)(C)C)cc1C")
"> 100 µM (inactive)"
>>> valuereported("O=C(/N=N/c1ccc(Br)cc1)NNc1ccc(Br)cc1")
"22.5 µM (inactive)"
>>> valuereported("c1ccc2c(Nc3ncco3)cccc2c1")
"> 10 µM (inactive)"

----------
The molecules listed here are annotated with their GI50.
- Tested on: LOX IMVI
- assayRemarks: NCI tumour cell line growth inhibition, 48 h
The source made the active and inactive calls. Cut-off read from the data, not from the text of the source: active = GI50 up to about 1.1 µM and inactive = higher.
valueType: GI50

>>> valuereported("O=c1c2cc([N+](=O)[O-])ccc2n2n1CCCC2")
"> 100 µM (inactive)"
>>> valuereported("COc1ccc2c(c1OC)C(=O)O[C@@H]2[C@H]1c2cc3c(cc2CCN1C)OCO3")
"> 100 µM (inactive)"
>>> valuereported("O=C1NC(N2CCCCC2)=N/C1=C\\c1ccc(Cl)cc1")
"34.5 µM (inactive)"
>>> valuereported("C=C1CCCC(C)(C)[C@@H]1CC/C(C)=C/Cn1c2cccc(=O)c-2nc2ccccc21")
"1.15 µM (inactive)"
>>> valuereported("C/C(=N\\NC(N)=O)C(CN(C)C)C(c1ccccc1)c1c(O)c2ccccc2oc1=O (stereo not drawn)")
"> 100 µM (inactive)"
>>> valuereported("CCCCSC1=N/C(=C\\c2ccccc2O)C(Cl)=N1")
"> 100 µM (inactive)"
>>> valuereported("O=C(Cn1c(C(=O)/C=C/c2cccs2)nc2ccccc21)c1ccc(Cl)cc1")
"13.9 µM (inactive)"
>>> valuereported("CC(C)=CC1C[C@H](C2CC=C3C2(C)CCC2[C@@]3(C)C(=O)CC3[C@]2(C)C=CC(=O)[C@]3(C)CO)CO1 (stereo partly drawn)")
"3.76 µM (inactive)"
>>> valuereported("Cc1ccc2nc(-c3ccc(N)c(Br)c3)sc2c1")
"13.2 µM (inactive)"
>>> valuereported("O=C(O)CCC(=O)N1c2ccccc2CC1c1c[nH]c2ccccc12 (stereo not drawn)")
"> 100 µM (inactive)"
>>> valuereported("CN(C)/C=C(\\C(=O)c1ccccc1)n1nc(-c2ccccc2)cc1-c1ccccc1")
"> 10 µM (inactive)"
>>> valuereported("CC1=NN(C(=O)Nc2ccc(Cl)cc2)C(=O)C2CCC(=O)N12 (stereo not drawn)")
"4.13 µM (inactive)"
>>> valuereported("O=C(CCc1ccc(O)c(O)c1)NCCc1cc(O)cc(OCc2ccccc2)c1")
"26.3 µM (inactive)"
>>> valuereported("O=[N+]([O-])c1ccc(NN=C2c3ccccc3Cc3ccccc32)c([N+](=O)[O-])c1")
"7.87 µM (inactive)"
>>> valuereported("CCSc1n/c(=C\\c2ccco2)c2nnnn12")
"> 100 µM (inactive)"
>>> valuereported("C=C(CO)CC(/C=C(\\C)CC/C=C(\\C)CCl)OC(C)=O (stereo not drawn)")
"> 100 µM (inactive)"
>>> valuereported("CCOC(=O)NC(Nc1c(F)c(F)c(F)c(F)c1F)(C(F)(F)F)C(F)(F)F")
"> 100 µM (inactive)"
>>> valuereported("Oc1nc2c(c(-c3ccc(F)cc3)n1)COC/C2=C\\c1ccc(F)cc1")
"> 100 µM (inactive)"
>>> valuereported("CC(=O)O[C@H]1CC[C@@]2(C)[C@@H](CC[C@@H]3[C@@H]2CC(=O)[C@@]2(C)[C@H]3C[C@@H]3CC(C)=CC(=O)[C@@H]32)C1")
"> 100 µM (inactive)"
>>> valuereported("CN1CCC2(CC1)C(=O)N(N1CCCCCC1)C(=O)N2c1ccccc1")
"> 100 µM (inactive)"
>>> valuereported("O=C1C2CCCCC2C(=O)N1n1c(-c2ccccc2)n[nH]c1=O (stereo not drawn)")
"> 100 µM (inactive)"
>>> valuereported("CC(C)CN1CN(c2ccccc2)C2(CCN(CC(C)(c3ccc(F)cc3)C3OCCO3)CC2)C1=O (stereo not drawn)")
"2.08 µM (inactive)"
>>> valuereported("Cc1cc2c(cc1C)[n+]([O-])c(C(=O)CC(=O)C(=O)Nc1c(C(C)C)cccc1C(C)C)c(C)[n+]2[O-]")
"> 100 µM (inactive)"
>>> valuereported("C=CC(=O)Nc1ccccc1CC(c1c[nH]c2ccccc12)c1c[nH]c2ccccc12")
"18.5 µM (inactive)"
>>> valuereported("COc1ccc(COC(=O)NNC(=O)C2CSC(c3ccccc3)N2C(C)=O)cc1 (stereo not drawn)")
"> 100 µM (inactive)"
>>> valuereported("Cc1ccc(/C=C2\\NC(=S)NC2=O)cc1")
"40.3 µM (inactive)"
>>> valuereported("O=c1c2cc([N+](=O)[O-])cnc2sn1-c1ccc(Br)cc1")
"19.3 µM (inactive)"
>>> valuereported("N=C(N)NS(=O)(=O)c1ccc(NC(=O)c2ccc3nc4ccccc4c(N)c3c2)cc1")
"> 100 µM (inactive)"
>>> valuereported("C/C(CC(=O)Nc1ccc([N+](=O)[O-])cc1)=N\\Nc1ccc([N+](=O)[O-])cc1[N+](=O)[O-]")
"10.7 µM (inactive)"
>>> valuereported("c1cncc(C(Nc2cccc3cccnc23)Nc2cccc3cccnc23)c1")
"> 100 µM (inactive)"
>>> valuereported("CC(C)C(NC(=O)C(Cc1ccccc1)NC(=O)[C@H]1CCC[C@H]1NC(=O)C(Cc1ccc(OC(C)(C)C)cc1)NC(=O)OC(C)(C)C)C(N)=O (stereo partly drawn)")
"15.6 µM (inactive)"
>>> valuereported("NC(=O)C(=CNC(=S)Nc1ccc(S(=O)(=O)Nc2ccccn2)cc1)C(N)=O")
"> 93.1 µM (inactive)"
>>> valuereported("CCc1ccc(Nc2cc(=O)n(C)c(SCc3ccccc3)n2)cc1")
"33 µM (inactive)"
